- experimental system: protein farnesyltransferase (Rattus norvegicus, UniProt Q02293+Q04631)
- Construct: The enzyme is purified according to Reiss, Y., et al., Cell, 62: 81-88 (1990), utilizing steps one through three; from tissue; host or cells: rat brain
- experiment notes: Inhibition of farnesyltransferase (scintillation proximity assay, rat brain enzyme, biotin-K Ras B fragment substrate)
- Type: biochemical
- measurement setup: read-out: % inhibition of farnesyltransferase at 1 × 10^-7 M; 1 × 10^-7 M (Table 3)
Where a name gives a salt, the structure may show the parent alone.
Think of 90% as a floor: if inhibition at 0.1 µM stands on it or above, it is Satisfied; beneath it, Not satisfied.

Tell me whether inhibition at 0.1 µM is at least 90% here: CSCC[C@H](NC(=O)c1ccc(CN2CCCC(OCC3CCCCC3)C2)cc1-c1ccccc1C)C(=O)O (stereo partly shown) Not satisfied

In plain terms: is recorded inhibition at 0.1 µM at least 90% for CSCC[C@H](NC(=O)c1ccc(CCc2ccccc2Oc2ccccc2)cc1-c1ccccc1C)C(=O)O [Example 455, lithium salt] ? Not satisfied

Kindly determine if inhibition at 0.1 µM recorded for CSCC[C@H](NC(=O)c1ccc(C=Cc2cncs2)cc1-c1ccccc1C)C(=O)O [Example 785, lithium salt] is above or exactly 90%. Satisfied

Would you say CSCC[C@H](NC(=O)c1ccc(CCc2ccc(C3CCCCC3)cc2)cc1-c1ccccc1C)C(=O)O [Example 461, lithium salt] shows inhibition at 0.1 µM at minimum 90%? Satisfied

Reported inhibition at 0.1 µM reaches at least 90% for CSCC[C@H](NC(=O)c1ccc(CCc2ccc(Oc3cccc(Cl)c3)cc2)cc1-c1ccccc1C)C(=O)O ? Not satisfied

Say whether CSCC[C@H](NC(=O)c1ccc(C#Cc2cncnc2)cc1-c1ccccc1C)C(=O)O [Example 493, lithium salt] shows inhibition at 0.1 µM of 90% or more. Not satisfied

// inclusive: inhibition at 0.1 µM at least 90%? input: CSCC[C@H](NC(=O)c1ccc(/C=C/c2ccc(Oc3ccccc3[N+](=O)[O-])cc2)cc1-c1ccccc1C)C(=O)O Satisfied

Check this compound for inhibition at 0.1 µM at or above 90%: CSCC[C@H](NC(=O)c1ccc(CCc2ccc(Oc3ccccc3)nn2)cc1-c1ccccc1C)C(=O)O [Example 811, lithium salt] Not satisfied
